Quick reference: TGI of the listed items.
# System: HCC-2998 colon
# test-details: NCI tumour cell line growth inhibition, 48 h

Below, 3 compounds whose answers are already recorded.
compound	test-result
Cn1cc(C2=C(c3cn(CCCCCO)c4ccccc34)C(=O)NC2=O)c2ccccc21	> 20.6 µM
Cc1ccsc1-c1ccc2c(c1)COC2(CCCN(C)C)c1ccc(F)cc1 (configuration not stated)	3.25 µM
Cc1cc2c(cc1Cl)SC(c1ccccc1O)NS2(=O)=O (configuration not stated)	> 100 µM

QUERY: Given the entry CC(C)C(Sc1nc(-c2ccccc2)c(-c2ccccc2)[nH]1)c1n[nH]c(=S)n1-c1ccccc1 (configuration not stated) , report its measured TGI.
RESULT: 46 µM

QUERY: Given the entry O=C1[C@@H](O)[C@@H]2CCCC[C@@]23CCCN13 , report its measured TGI.
RESULT: > 100 µM

QUERY: Given the entry N#CC1=C(N)Oc2c(sc3c(Br)cccc23)C1c1ccc(Cl)cc1 (configuration not stated) , report its measured TGI.
RESULT: 6.29 µM

QUERY: Given the entry COc1cc(C2CC(=O)Nc3c2c(C)nn3-c2nc3ccccc3[nH]2)cc(OC)c1O (configuration not stated) , report its measured TGI.
RESULT: 35.7 µM

QUERY: Given the entry O=CN1CCC23CC(O)CCC2C1Cc1cc(Oc2nnnn2-c2ccccc2)cc(O)c13 (configuration not stated) , report its measured TGI.
RESULT: > 100 µM

QUERY: Given the entry COC(=O)Cn1c(=O)oc2nc(-c3ccccc3)cc(C(F)(F)F)c21 , report its measured TGI.
RESULT: > 100 µM
